Experiment: In vivo pharmacokinetic experiment in CD-1 mice
Conditions: mouse, plasma, iv; Injection (1 mg/kg), CD-1 female mice
# label = y if clearance < 6 mL/min/kg else n

Would you please look over these solved cases?
> print(dat)
                                   molecule  class.assignment
1  Cc1nc2ccc(CN3CCN(c4ccc(C(=O)NC5CC5)nc4F)CC3)cc2[nH]c1=O                 y
2  Cc1nc2ccc(CN3CCN(c4ccc(C(=O)N[C@@H]5C[C@@H]5F)nc4F)CC3)cc2[nH]c1=O                 n
3  CNC(=O)c1ccc(N2CCN(Cc3ccc4nc(C)c(=O)[nH]c4c3F)CC2)c(F)n1 [AZD9574, reference compound]                 n
4  Cc1nc2ccc(CN3CCN(c4ccc(C(=O)N[C@H]5C[C@H]5F)nc4F)CC3)cc2[nH]c1=O                 y

Quick check: does Cc1nc2ccc(CN3CCN(c4ccc(C(=O)NC5CC5)nc4F)CC3)c(F)c2[nH]c1=O have clearance under 6 mL/min/kg? n
